target: human MC4R (Homo sapiens, UniProt P32245); construct: host or cells: HEK-293 cells stably expressing the GScAMP22F split-luciferase cAMP sensor and hMC4R, G418 selection; assay: split-luciferase cAMP sensor assay, agonist mode (measurement window 1), hMC4R; assay type: cell-based
Sequence (P32245 whole entry): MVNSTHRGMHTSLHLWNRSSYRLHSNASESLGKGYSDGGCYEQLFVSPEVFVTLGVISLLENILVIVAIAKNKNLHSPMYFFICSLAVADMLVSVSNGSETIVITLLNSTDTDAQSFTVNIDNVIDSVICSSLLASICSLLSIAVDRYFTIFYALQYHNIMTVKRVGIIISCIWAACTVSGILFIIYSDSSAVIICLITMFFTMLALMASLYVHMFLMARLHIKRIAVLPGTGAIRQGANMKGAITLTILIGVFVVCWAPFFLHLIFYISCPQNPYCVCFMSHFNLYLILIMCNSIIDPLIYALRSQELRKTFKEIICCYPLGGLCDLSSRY
Positions of bridges follow the written chain, without caps; N, C: chain ends. Non-standard residues stand in square brackets, D forms with d. Residues, ends and D or L forms follow the SMILES beside them. dPhe(4-Br) = N[C@H](Cc1ccc(Br)cc1)C(=O)O; Tic = O=C(O)[C@@H]1Cc2ccccc2CN1
Measured MC4R selectivity vs MC3R accompanies every entry in the list below.

# example entries with known answers
Compound: CC(=O)N[C@@H](CCCNC(=N)N)C(=O)N[C@H]1CSSC[C@@H](C(N)=O)NC(=O)[C@H](Cc2c[nH]c3ccccc23)NC(=O)[C@H](CCCNC(=N)N)NC(=O)[C@@H](Cc2ccc(Br)cc2)NC(=O)[C@H](Cc2c[nH]cn2)NC(=O)[C@@H](C)NC1=O
MC4R selectivity vs MC3R: 7.35
--
Compound: CC(=O)N[C@@H](CCCNC(=N)N)C(=O)N[C@H]1CSSC[C@@H](C(N)=O)NC(=O)[C@@H](Cc2c[nH]c3ccccc23)NC(=O)[C@H](CCCNC(=N)N)NC(=O)[C@@H](Cc2ccc(O)cc2)NC(=O)[C@H](CCCNC(=N)N)NC(=O)[C@@H](C)NC1=O [CTX-1237] (Ac-RC[dA]R[dY]R[dW]C-NH2; disulfide 2-8 (inferred))
MC4R selectivity vs MC3R: 0.08

Field: next compound
Query: MC4R selectivity vs MC3R; subject: CC(=O)N[C@@H](CCCNC(=N)N)C(=O)N[C@H]1CSSC[C@@H](C(N)=O)NC(=O)[C@@H]2Cc3ccccc3CN2C(=O)[C@H](CCCNC(=N)N)NC(=O)[C@@H](Cc2ccc(Br)cc2)NC(=O)[C@H](CCCNC(=N)N)NC(=O)[C@@H](C)NC1=O [CTX-1259] (Ac-RC[dA]R[dPhe(4-Br)]R[Tic]C-NH2; disulfide 2-8 (inferred))
0.12

----------
Measured MC4R selectivity vs MC1R accompanies every entry in the list below.
target: human MC4R (Homo sapiens); construct: host or cells: HEK-293 cells stably expressing the GScAMP22F split-luciferase cAMP sensor and hMC4R, G418 selection; assay: split-luciferase cAMP sensor assay, agonist mode (measurement window 1), hMC4R; assay type: cell-based
Positions of bridges follow the written chain, without caps; N, C: chain ends. Non-standard residues stand in square brackets, D forms with d. Residues, ends and D or L forms follow the SMILES beside them. dPhe(4-Br) = N[C@H](Cc1ccc(Br)cc1)C(=O)O; d(αMeF) = C[C@@](N)(Cc1ccccc1)C(=O)O; NMeR = CN[C@@H](CCCNC(=N)N)C(=O)O; Cit = NC(=O)NCCC[C@H](N)C(=O)O; Nle = CCCC[C@H](N)C(=O)O; dAbu = CC[C@@H](N)C(=O)O; Aib = CC(C)(N)C(=O)O

# example entries with known answers
Compound: CC(=O)N[C@@H](CCCNC(=N)N)C(=O)N[C@H]1CSSC[C@@H](C(N)=O)NC(=O)[C@@H](Cc2c[nH]c3ccccc23)NC(=O)[C@H](CCCNC(N)=O)NC(=O)[C@@H](Cc2ccccc2)NC(=O)[C@H](CCCNC(=N)N)NC(=O)C(C)(C)NC1=O [CTX-1271] (Ac-RC[Aib]R[dF][Cit][dW]C-NH2; disulfide 2-8 (inferred))
Value: 2.9
//
Compound: CC(=O)N[C@@H](CCCNC(=N)N)C(=O)N[C@H]1CSSC[C@@H](C(N)=O)NC(=O)[C@@H](Cc2c[nH]c3ccccc23)NC(=O)[C@H](CCCNC(=N)N)NC(=O)[C@@](C)(Cc2ccccc2)NC(=O)[C@H](CCCNC(=N)N)NC(=O)[C@@H](C)NC1=O [CTX-1240] (Ac-RC[dA]R[d(αMeF)]R[dW]C-NH2; disulfide 2-8)
Value: 0.46
//
Compound: CC(=O)N[C@@H](CCCNC(=N)N)C(=O)N[C@H]1CSSC[C@@H](C(N)=O)NC(=O)[C@@H](Cc2c[nH]c3ccccc23)NC(=O)[C@H](CCCNC(=N)N)NC(=O)[C@@H](Cc2ccc(Br)cc2)NC(=O)[C@H](CCCNC(=N)N)N(C)C(=O)[C@@H](C)NC1=O [CTX-1248] (Ac-RC[dA][NMeR][dPhe(4-Br)]R[dW]C-NH2; disulfide 2-8 (inferred))
Value: 1.31
//
Compound: CC(=O)N[C@@H](CCCNC(=N)N)C(=O)N[C@H]1CSSC[C@@H](C(N)=O)NC(=O)[C@@H](Cc2c[nH]c3ccccc23)NC(=O)[C@@H](CCCNC(=N)N)NC(=O)[C@@H](Cc2ccc(Br)cc2)NC(=O)[C@H](CCCNC(=N)N)NC(=O)[C@@H](C)NC1=O [CTX-1252] (Ac-RC[dA]R[dPhe(4-Br)][dR][dW]C-NH2; disulfide 2-8 (inferred))
Value: 0.04

Query: MC4R selectivity vs MC1R; subject: CCCC[C@H](NC(=O)[C@H](CCCNC(=N)N)NC(C)=O)C(=O)N[C@H]1CSSC[C@@H](C(N)=O)NC(=O)[C@H](Cc2c[nH]c3ccccc23)NC(=O)[C@H](CCCNC(=N)N)NC(=O)[C@@H](Cc2ccc(Br)cc2)NC(=O)[C@H](CCCNC(=N)N)NC1=O [CTX-1230] (Ac-R[Nle]CR[dPhe(4-Br)]RWC-NH2; disulfide 3-8)
0.18

Query: MC4R selectivity vs MC1R; subject: COc1ccc(C[C@H]2NC(=O)[C@H](CCCNC(=N)N)NC(=O)CNC(=O)[C@@H](NC(C)=O)CSSC[C@@H](C(N)=O)NC(=O)[C@H](Cc3ccccc3)NC(=O)[C@H](CCCNC(=N)N)NC2=O)cc1 [CTX-1641] (Ac-CGR[dY](Me)RFC-NH2; disulfide 1-7)
0.28

Query: MC4R selectivity vs MC1R; subject: CCCC[C@H](NC(=O)[C@H](CCCNC(=N)N)NC(C)=O)C(=O)N[C@H]1CSSC[C@@H](C(N)=O)NC(=O)[C@@H](Cc2c[nH]c3ccccc23)NC(=O)[C@H](CCCNC(=N)N)NC(=O)[C@@H](Cc2ccc(Br)cc2)NC(=O)[C@H](Cc2c[nH]cn2)NC1=O [CTX-1231] (Ac-R[Nle]CH[dPhe(4-Br)]R[dW]C-NH2; disulfide 3-8 (inferred))
0.19

Query: MC4R selectivity vs MC1R; subject: CC(=O)N[C@@H](CCCNC(=N)N)C(=O)N[C@H]1CSSC[C@@H](C(N)=O)NC(=O)[C@@H](Cc2c[nH]c3ccccc23)NC(=O)[C@H](CCCNC(=N)N)N(C)C(=O)[C@@H](Cc2ccc(Br)cc2)NC(=O)[C@H](CCCNC(=N)N)NC(=O)[C@@H](C)NC1=O [CTX-1251] (Ac-RC[dA]R[dPhe(4-Br)][NMeR][dW]C-NH2; disulfide 2-8)
0.11

Query: MC4R selectivity vs MC1R; subject: CC(=O)N[C@@H](CCCNC(=N)N)C(=O)N[C@H]1CSSC[C@@H](C(=O)N[C@@H](CCCNC(=N)N)C(=O)N[C@H](Cc2ccccc2)C(N)=O)NC(=O)[C@@H](Cc2c[nH]c3ccccc23)NC(=O)[C@H](CCCNC(=N)N)NC(=O)[C@@H](Cc2ccc(Br)cc2)NC(=O)[C@H](CCCNC(=N)N)NC(=O)[C@@H](C)NC1=O [CTX-1222] (Ac-RC[dA]R[dPhe(4-Br)]R[dW]CR[dF]-NH2; disulfide 2-8 (inferred))
0.1

Query: MC4R selectivity vs MC1R; subject: CC(=O)N[C@@H](CCCNC(=N)N)C(=O)N[C@H]1CSSC[C@@H](C(N)=O)NC(=O)[C@@H](Cc2c[nH]c3ccccc23)NC(=O)[C@H](CCCNC(=N)N)NC(=O)[C@@H](Cc2c[nH]c3ccccc23)NC(=O)[C@H](CCCNC(=N)N)NC(=O)[C@@H](C)NC1=O [CTX-1244] (Ac-RC[dA]R[dW]R[dW]C-NH2; disulfide 2-8 (inferred))
0.26

Query: MC4R selectivity vs MC1R; subject: CC(=O)N[C@@H](CCCNC(=N)N)C(=O)N[C@H]1CSSC[C@@H](C(N)=O)NC(=O)[C@@H](C)NC(=O)[C@H](CCCNC(=N)N)NC(=O)[C@@H](Cc2ccc(Br)cc2)NC(=O)[C@H](CCCNC(=N)N)NC(=O)[C@@H](C)NC1=O [CTX-1260] (Ac-RC[dA]R[dPhe(4-Br)]R[dA]C-NH2; disulfide 2-8)
0.01

Query: MC4R selectivity vs MC1R; subject: CC[C@H]1NC(=O)[C@@H](NC(=O)[C@H](CCCNC(=N)N)NC(C)=O)CSSC[C@@H](C(N)=O)NC(=O)[C@@H](Cc2c[nH]c3ccccc23)NC(=O)[C@H](CCCNC(=N)N)NC(=O)[C@@H](Cc2ccc(Br)cc2)NC(=O)[C@H](CCCNC(=N)N)NC1=O [CTX-1247] (Ac-RC[dAbu]R[dPhe(4-Br)]R[dW]C-NH2; disulfide 2-8 (inferred))
0.43
